Where these numbers come from: patent US10239844B2

test system: SF-539; assay: NCI 60 panel five-dose growth inhibition, CNS Cancer; format: cell-based, human; conditions: SF-539, CNS Cancer
attribute_measured: TGI (µM)
# output: bare number, implied unit µM

Some compounds with recorded TGI:
| compound | TGI, µM |
| --- | --- |
| COc1cc(-c2n[nH]nc2-c2ccc3ccccc3n2)cc(OC)c1OC [Example 4] | 0.04 |
| COc1cc(-c2n[nH]nc2-c2ccc3c(c2)OCCO3)cc(OC)c1OC [Example 7] | 0.54 |

Turning to the following compound.
Query: Please tell me: TGI of COc1cc(-c2n[nH]nc2-c2cc(OC)c(OC)c(OC)c2)cc(OC)c1OC [Example 3] , system SF-539?
Response: 0.05

----------
test system: 786-0; experiment: NCI 60 panel five-dose growth inhibition, Renal Cancer; assay type: cell-based, human; details: 786-0, Renal Cancer
Below, each entry is listed alongside its reported TGI.
Return type: number; implicit unit µM.

The examples below pair each entry with its known result.
| entry_smiles | attribute_measured | result_unit | recorded_value |
| --- | --- | --- | --- |
| COc1ccc(-c2n[nH]nc2-c2cc(OC)c(OC)c(OC)c2)cc1 | TGI | µM | 13.5 |
| COc1cc(-c2n[nH]nc2-c2ccc3c(c2)OCCO3)cc(OC)c1OC | TGI | µM | 63.5 |

Could you now consider this next compound?
Query: Give the measured TGI of COc1ccc(-c2n[nH]nc2-c2cc(OC)cc(OC)c2)cc1 .
Response: 19.4

----------
system: OVCAR-4; assay: NCI 60 panel five-dose growth inhibition, Ovarian Cancer; assay type: cell-based, human; conditions: OVCAR-4, Ovarian Cancer
Listing: TGI of selected molecules

Would you please look over these solved cases?
| entry_smiles | study_system | attribute_measured | recorded_value |
| --- | --- | --- | --- |
| COc1cc(-c2n[nH]nc2-c2ccc3c(c2)OCCO3)cc(OC)c1OC | OVCAR-4 | TGI | >100 µM |
| COc1ccc(-c2n[nH]nc2-c2cc(OC)cc(OC)c2)cc1 | OVCAR-4 | TGI | >100 µM |
| COc1cc(-c2n[nH]nc2-c2ccc3ccccc3n2)cc(OC)c1OC | OVCAR-4 | TGI | >100 µM |
| COc1cc(-c2n[nH]nc2-c2cc(OC)c(OC)c(OC)c2)cc(OC)c1OC | OVCAR-4 | TGI | >100 µM |

Kindly review the next molecule as well.
Query: Which TGI value belongs to COc1ccc(-c2n[nH]nc2-c2cc(OC)c(OC)c(OC)c2)cc1 ?
Response: 57.2 µM

----------
system: OVCA R-3
attribute_measured: GI50

Worked cases, answers included:
| compound | recorded_value |
| --- | --- |
| COc1ccc(-c2n[nH]nc2-c2cc(OC)c(OC)c(OC)c2)cc1 [Example 6] | < 10 nM |
| COc1cc(-c2n[nH]nc2-c2cc(OC)c(OC)c(OC)c2)cc(OC)c1OC [Example 3] | 10.8 nM |
| COc1cc(-c2n[nH]nc2-c2ccc3ccccc3n2)cc(OC)c1OC [Example 4] | 24.4 nM |
| COc1cc(-c2n[nH]nc2-c2ccc3c(c2)OCCO3)cc(OC)c1OC [Example 7] | 432 nM |

Query: For OVCA R-3, provide GI50 of COc1ccc(-c2n[nH]nc2-c2cc(OC)cc(OC)c2)cc1 [Example 5] please.
Response: < 10 nM
